# TEST_METHOD_NOTES: viability loss in pontine glioma line – cell-based, SU-DIPG-XXV, MIPE5.0, CellTiter-Glo, qHTS, dose response (AID 1347065);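 further: cells exposed to compound for 48 hours before ATP readout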
# PARTICULARS: CellTiter-Glo ATP luminescence
Inconclusive results are not listed. Activity calls are given as the source filed them. Cut-off not given; nearly all actives show AC50 up to about 26 µM.
PROPERTY_LABEL: AC50

{"COMPOUND": "O=C(NNc1ccccc1)c1ccncc1", "EXPERIMENTAL_RESULT": "inactive"}
{"COMPOUND": "O=c1cc(N2CCOCC2)oc2c(-c3ccc4c(c3)OCCO4)csc12", "EXPERIMENTAL_RESULT": "8.33 µM (active)"}
{"COMPOUND": "N#CCC1(n2cc(-c3ncnc4[nH]ccc34)cn2)CN(C2CCN(C(=O)c3ccnc(C(F)(F)F)c3F)CC2)C1", "EXPERIMENTAL_RESULT": "inactive"}
{"COMPOUND": "CCC[C@H](NC(=O)[C@@H]1[C@H]2CCC[C@H]2CN1C(=O)[C@@H](NC(=O)[C@@H](NC(=O)c1cnccn1)C1CCCCC1)C(C)(C)C)C(=O)C(=O)NC1CC1", "EXPERIMENTAL_RESULT": "inactive"}
{"COMPOUND": "Clc1ccc(C(c2ccc(Cl)cc2)n2cc[n+](CC(OCc3ccc(Cl)cc3Cl)c3ccc(Cl)cc3Cl)c2)cc1 (centres undefined)", "EXPERIMENTAL_RESULT": "2.35 µM (active)"}
{"COMPOUND": "O=[N+]([O-])c1ccc(Nc2ccccc2-c2ccccc2)c2nonc12", "EXPERIMENTAL_RESULT": "18.6 µM (active)"}
{"COMPOUND": "CCOc1cc(/C=C2/C(=O)N(c3ccccc3)N=C2C)cc(Cl)c1OCC(=O)OC", "EXPERIMENTAL_RESULT": "inactive"}
{"COMPOUND": "Cc1ccc(Nc2nnc(Cc3ccncc3)c3ccccc23)cc1Br", "EXPERIMENTAL_RESULT": "14.8 µM (active)"}
{"COMPOUND": "Cc1cc(OCCCS(C)(=O)=O)cc(C)c1-c1cccc(COc2ccc3c(c2)OC[C@H]3CC(=O)O)c1", "EXPERIMENTAL_RESULT": "inactive"}
